Molecular target: BCL2 F104I (Homo sapiens, UniProt P10415, F104I)
Test: TR-FRET competitive binding assay, BCL2 F104I
Settings: Ki determined from IC50, read-out: TR_FRET EKI_Bcl2 F104I
pKi: −log10 of the molar value.
measurement.type: pKi

Below are worked cases with known answers.
Cc1c(C(=O)N(c2ccc(O)cc2)c2cc(C#N)n(C(F)F)c2C)cc(-c2cc3c(cc2C(=O)N2Cc4ccccc4C[C@H]2CN2CCCCC2)CN(C(=O)Cc2ccc(OCCN4CCOCC4)cc2F)CC3)n1C | 9.37
Cc1c(N(C(=O)c2cc(-c3cc4c(cc3C(=O)N3Cc5ccccc5C[C@H]3CN3CCCCC3)CN(C(=O)Cc3ccc(OCCN(C)CCF)cc3F)CC4)n(C)c2C)c2ccc(O)cc2)cc(C#N)n1C | 9.48

(A) Cc1c(N(C(=O)c2cc(-c3cc4c(cc3C(=O)N3Cc5ccccc5C[C@H]3CN3CCC[C@H](C)C3)CN(C(=O)Cc3ccc(OCCN5CCOCC5)cc3F)CC4)n(C)c2C)c2ccc(O)cc2)cc(C#N)n1C
(B) Cc1c(N(C(=O)c2cc(-c3cc4c(cc3C(=O)N3Cc5ccccc5C[C@H]3CN3CCCCC3)CN(C(=O)Cc3ccc(OCCN(C)C5CC5)cc3)CC4)n(C)c2C)c2ccc(O)cc2)cc(C#N)n1C
(C) Cc1c(N(C(=O)c2cc(-c3cc4c(cc3C(=O)N3Cc5ccccc5C[C@H]3CN3CCCCC3)CN(C(=O)Cc3ccc(Cl)cc3F)CC4)n(C)c2C)c2ccc(O)cc2)cc(C#N)n1C
In this exercise, place the 3 compounds in ascending sequence of their recorded pKi. Answer format: the labels, in the requested order.
C, B, A

* * *

The following are reported pKi results, target or system UniProt:Q07817.
Sequence (Q07817 other isoform, or with tags, fused parts or gaps): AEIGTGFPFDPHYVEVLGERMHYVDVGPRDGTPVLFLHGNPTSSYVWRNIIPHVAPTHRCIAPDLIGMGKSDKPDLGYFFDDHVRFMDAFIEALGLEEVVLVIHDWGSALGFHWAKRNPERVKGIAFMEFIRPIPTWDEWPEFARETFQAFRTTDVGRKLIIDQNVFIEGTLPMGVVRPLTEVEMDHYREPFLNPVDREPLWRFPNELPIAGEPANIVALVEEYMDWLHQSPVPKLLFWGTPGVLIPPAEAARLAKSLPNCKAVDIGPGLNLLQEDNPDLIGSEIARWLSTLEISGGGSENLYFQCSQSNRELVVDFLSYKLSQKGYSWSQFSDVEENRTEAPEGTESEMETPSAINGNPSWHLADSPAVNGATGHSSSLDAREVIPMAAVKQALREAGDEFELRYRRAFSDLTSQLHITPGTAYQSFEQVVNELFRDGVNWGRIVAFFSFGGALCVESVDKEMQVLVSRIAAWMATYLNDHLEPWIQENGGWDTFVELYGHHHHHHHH
pKi: −log10 of the molar value.
measurement.type: pKi

Please review the entries below; each comes with its answer.
Cc1c(C(=O)N(c2ccc(O)cc2)c2cc(C#N)n(C(F)F)c2C)cc(-c2cc3c(cc2C(=O)N2Cc4ccccc4C[C@H]2CN2CCCCC2)CN(C(=O)Cc2ccc(OCCN4CCN(CCF)CC4)cc2F)CC3)n1C [Example 159] | 8.43
Cc1c(C(=O)N(c2ccc(O)cc2)c2cc(C#N)n(CC3CCOC3)c2C)cc(-c2cc3c(cc2C(=O)N2Cc4ccccc4C[C@H]2C)CN(C(=O)Cc2ccc(OCCN4CCOCC4)cc2F)CC3)n1C (single isomer, unassigned) [Example 84] | 8.74
Cc1c(N(C(=O)c2cc(-c3cc4c(cc3C(=O)N3Cc5ccccc5C[C@H]3C)CN(C(=O)Cc3ccc(OCCN(C)C5CC5)cc3)CC4)n3c2CCCC3)c2ccc(O)cc2)cc(C#N)n1C [Example 35] | 8.59

(a) Cc1c(N(C(=O)c2cc(-c3cc4c(cc3C(=O)N3Cc5ccccc5C[C@H]3CN3CCCCC3)CN(C(=O)Cc3ccc(OCCN(C)C5COC5)cc3)CC4)n(C)c2C)c2ccc(O)cc2)cc(C#N)n1C [Example 106]
(b) Cc1c(C(=O)N(c2ccccc2)c2cnn(CCN(C)C)c2)cc(-c2cc3c(cc2C(=O)N2Cc4ccccc4C[C@H]2C)CN(C(=O)Cc2ccc(OCCC4CCOCC4)cc2)CC3)n1C [Example 207]
Which of the two gives a bigger number for pKi: a or b ? Output the label that corresponds to your choice.
a

Data credit: patent US20250179047A1
